- EXPERIMENTAL TARGET: CamA (Clostridioides difficile)
- Sequence (Q183J3 1-577): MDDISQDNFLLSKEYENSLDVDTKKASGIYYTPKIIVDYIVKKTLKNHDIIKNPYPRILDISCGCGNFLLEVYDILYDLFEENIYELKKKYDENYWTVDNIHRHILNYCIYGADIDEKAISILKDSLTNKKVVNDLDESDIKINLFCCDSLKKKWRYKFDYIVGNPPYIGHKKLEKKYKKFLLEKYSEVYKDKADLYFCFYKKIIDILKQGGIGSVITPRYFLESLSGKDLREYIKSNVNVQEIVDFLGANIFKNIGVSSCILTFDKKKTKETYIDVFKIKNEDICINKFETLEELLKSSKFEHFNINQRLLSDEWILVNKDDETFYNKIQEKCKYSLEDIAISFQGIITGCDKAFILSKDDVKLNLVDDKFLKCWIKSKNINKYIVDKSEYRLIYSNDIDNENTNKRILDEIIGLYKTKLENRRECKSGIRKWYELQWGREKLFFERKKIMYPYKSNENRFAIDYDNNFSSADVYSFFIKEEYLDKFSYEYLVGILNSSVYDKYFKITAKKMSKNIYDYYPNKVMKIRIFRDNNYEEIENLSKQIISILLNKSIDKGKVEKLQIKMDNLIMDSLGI
pKd: −log10 of the molar value.
MEASUREMENT LABEL: pKd

Tell us which pKd value is on record for "CC(C)(C)OC(=O)N1CCC(CCCNc2ncnc3c2ncn3[C@@H]2O[C@H](CO)[C@@H](O)[C@H]2O)CC1" ~6.70

These entries and their values trace back to paper PMC9841527.
